Target: KCNQ2/3 channels (Homo sapiens, UniProt O43525+O43526)
Construct: expressed in transfected cells
Sequence (O43526 whole entry): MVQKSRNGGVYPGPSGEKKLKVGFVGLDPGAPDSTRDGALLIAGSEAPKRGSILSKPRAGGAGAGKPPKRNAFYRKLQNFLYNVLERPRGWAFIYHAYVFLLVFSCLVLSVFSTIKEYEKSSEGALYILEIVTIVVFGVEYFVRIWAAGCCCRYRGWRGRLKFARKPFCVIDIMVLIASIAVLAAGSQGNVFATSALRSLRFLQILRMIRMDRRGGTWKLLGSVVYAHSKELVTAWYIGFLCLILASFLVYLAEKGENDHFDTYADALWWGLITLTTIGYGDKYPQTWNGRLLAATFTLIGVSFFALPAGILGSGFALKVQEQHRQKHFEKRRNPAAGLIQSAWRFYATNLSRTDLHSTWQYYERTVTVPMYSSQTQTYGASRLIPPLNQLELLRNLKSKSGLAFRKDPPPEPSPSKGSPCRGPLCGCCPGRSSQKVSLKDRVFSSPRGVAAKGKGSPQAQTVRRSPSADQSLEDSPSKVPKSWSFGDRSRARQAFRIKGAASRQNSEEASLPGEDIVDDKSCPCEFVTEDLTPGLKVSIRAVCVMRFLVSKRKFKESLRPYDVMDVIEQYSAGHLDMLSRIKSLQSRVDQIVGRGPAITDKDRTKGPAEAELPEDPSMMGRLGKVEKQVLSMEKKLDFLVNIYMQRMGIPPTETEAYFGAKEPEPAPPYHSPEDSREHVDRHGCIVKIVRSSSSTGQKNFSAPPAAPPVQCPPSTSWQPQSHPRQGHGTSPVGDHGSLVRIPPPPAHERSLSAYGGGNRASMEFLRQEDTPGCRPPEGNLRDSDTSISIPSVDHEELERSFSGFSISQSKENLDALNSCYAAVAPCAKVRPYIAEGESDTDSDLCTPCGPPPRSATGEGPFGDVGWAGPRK
Sequence (O43525 whole entry): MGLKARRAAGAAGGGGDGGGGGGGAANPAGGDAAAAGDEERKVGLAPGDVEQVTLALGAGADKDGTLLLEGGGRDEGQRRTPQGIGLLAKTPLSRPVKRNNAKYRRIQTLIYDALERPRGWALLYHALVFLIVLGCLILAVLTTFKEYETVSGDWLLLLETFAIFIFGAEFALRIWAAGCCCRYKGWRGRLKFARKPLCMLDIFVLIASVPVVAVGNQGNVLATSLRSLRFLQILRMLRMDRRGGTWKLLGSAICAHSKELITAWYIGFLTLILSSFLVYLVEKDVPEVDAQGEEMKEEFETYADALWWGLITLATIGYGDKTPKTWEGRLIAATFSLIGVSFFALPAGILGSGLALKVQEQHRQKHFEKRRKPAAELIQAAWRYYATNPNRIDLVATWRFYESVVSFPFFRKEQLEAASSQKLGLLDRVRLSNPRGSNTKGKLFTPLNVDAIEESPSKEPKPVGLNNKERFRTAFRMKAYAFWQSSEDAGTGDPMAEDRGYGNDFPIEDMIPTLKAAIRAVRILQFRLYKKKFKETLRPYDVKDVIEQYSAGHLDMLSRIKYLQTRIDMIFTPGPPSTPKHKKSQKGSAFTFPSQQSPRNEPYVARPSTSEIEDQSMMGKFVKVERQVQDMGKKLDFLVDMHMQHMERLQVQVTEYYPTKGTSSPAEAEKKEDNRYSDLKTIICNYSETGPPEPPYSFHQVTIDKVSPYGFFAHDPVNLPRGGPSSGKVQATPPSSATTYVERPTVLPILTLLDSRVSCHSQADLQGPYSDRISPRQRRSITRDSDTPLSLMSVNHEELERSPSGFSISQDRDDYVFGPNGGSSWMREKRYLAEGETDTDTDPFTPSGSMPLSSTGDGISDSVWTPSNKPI
Assay: Fluorescence assay using a voltage sensitive dye (fluorimetry)
Format: cell-based
Details: CHO-K1 cells expressing KCNQ2/3; IC50 where % efficacy is negative; read-out: Fluorimetry EC50/IC50
Method: Method I. Fluorescence Assay Using a Voltage Sensitive Dye (Fluorimetry) These voltage-sensitive dyes are fluorescent dyes and, therefore, are forming the link between cell potential influenced by KCNQ modulation and fluorescence intensity. A KCNQ agonist leads to an opening of the channel, potassium and dye efflux, a following hyperpolarization and a reduction of the inner fluorescence intensity in a kinetic protocol. […] The cell number is determined using a CASY™ cell counter (TCC, Schärfe System). […]
measure_name: EC50 (nM)
Report the figure in nM without appending any unit label.

Example results:
# compound, readout_value
rows = [
    ("CCOc1nc(N2CCCOCC2)cc(C)c1C(=O)NCc1cccc(F)c1", 899),
    ("CCSc1nc(N2CCOCC2)cc(C)c1C(=O)NCc1cc(F)cc(F)c1", 56),
]

The reported EC50 of the compound `CCCOc1nc(N2CCOCC2)cc(C)c1C(=O)NCc1cccc(F)c1` was 109

The reported EC50 of the compound `CCSc1nc(N2CCOCC2)cc(C)c1C(=O)NCCCC(C)(C)CO` was 12900

The reported EC50 of the compound `CCSc1nc(N2CCOCC2)cc(C)c1C(=O)NCCCC(C)(C)F` was 348

The reported EC50 of the compound `CCSc1nc(N2CCOCC2)cc(C)c1C(=O)NCCc1ccccc1` was 2120

The reported EC50 of the compound CCSc1nc(N2CCOC(C)C2)cc(C)c1C(=O)NCc1cccc(F)c1 (racemic) was 217
